Each entry below lists one item and its recorded EC50 value.
biological target: T1, huNav1.7α+β1 (human, UniProt Q15858 1-1988; Q07699 19-218); experiment: binding FACS, HEKa/β1 cells
T1 construct: also called huNav1.7-beta1; HEKa/β1
Just the number in nM, nothing appended.

Problem: So what's the measured EC50 for this one? F010301188 (VHH, vs F0103265A11: A31R, V60N, L103Q) VHH: EVQLVESGGGLVQPGGSLRLSCAASGMLFNRNTQGWYRQAPGKQRELVAFIFSGGYTNYNDSVKGRFTISRDNAKRTMYLQMNSLKPEDSAIYYCSLSRYQGQGTLVTVSS
Solution: 5.1

Problem: So what's the measured EC50 for this one? F0103387G05 (parental)-FLAG-HIS6 (VHH) VHH: EVQLVESGGGLVQAGGSLRLSCDASGRILRIGYMRWHRQGAGKQREFVARITDDSATDYADSVKGRFTISRDNAKNTVYLQMNNLNPEDTAVYYCEALVTASVRGGSIHSGTYWGRGTLVTVSS
Solution: 1.7

Problem: So what's the measured EC50 for this one? F010301566 (VHH, vs 387G05: D54G, D58G) VHH: EVQLVESGGGLVQAGGSLRLSCDASGRILRIGYMRWHRQGAGKQREFVARITDGSATGYADSVKGRFTISRDNAKNTVYLQMNNLNPEDTAVYYCEALVTASVRGGSIHSGTYWGRGTLVTVSS
Solution: 1

Problem: So what's the measured EC50 for this one? F010301175 (VHH, vs F0103265A11: A31R, N58T) VHH: EVQLVESGGGLVQPGGSLRLSCAASGMLFNRNTQGWYRQAPGKQRELVAFIFSGGYTTYVDSVKGRFTISRDNAKRTMYLQMNSLKPEDSAIYYCSLSRYLGQGTLVTVSS
Solution: 5.4

Problem: So what's the measured EC50 for this one? F010301099 (VHH, vs F0103265A11: Y56W, T57V, N58T) VHH: EVQLVESGGGLVQPGGSLRLSCAASGMLFNANTQGWYRQAPGKQRELVAFIFSGGWVTYVDSVKGRFTISRDNAKRTMYLQMNSLKPEDSAIYYCSLSRYLGQGTLVTVSS
Solution: 7.4

Problem: So what's the measured EC50 for this one? F010301564 (VHH, vs 387G05: D53G, D54G) VHH: EVQLVESGGGLVQAGGSLRLSCDASGRILRIGYMRWHRQGAGKQREFVARITGGSATDYADSVKGRFTISRDNAKNTVYLQMNNLNPEDTAVYYCEALVTASVRGGSIHSGTYWGRGTLVTVSS
Solution: 2.4

Problem: So what's the measured EC50 for this one? F010301162 (VHH, vs F0103265A11: A31R, Y56W, V60N, L103Q) VHH: EVQLVESGGGLVQPGGSLRLSCAASGMLFNRNTQGWYRQAPGKQRELVAFIFSGGWTNYNDSVKGRFTISRDNAKRTMYLQMNSLKPEDSAIYYCSLSRYQGQGTLVTVSS
Solution: 3.8

Problem: So what's the measured EC50 for this one? F010300535 (VHH, vs F0103265A11: S53W) VHH: EVQLVESGGGLVQPGGSLRLSCAASGMLFNANTQGWYRQAPGKQRELVAFIFWGGYTNYVDSVKGRFTISRDNAKRTMYLQMNSLKPEDSAIYYCSLSRYLGQGTLVTVSS
Solution: 5.5
